assay: Bioavailability in mouse at 10 mg/kg, ip administered as single dose; assay type: ADME, organism-based; conditions: in vivo
Endpoint Label: bioavailability (%)

[[record]]
compound = "CC(=O)N1[C@@H]2CC[C@H]1C=C(c1cnc(NCc3ccc4c(c3)OCC4)c(C(=O)NC[C@H]3COc4ccccc4O3)c1)C2 (mixture of isomers)"
endpoint_label = "bioavailability"
u = "%"
test_value = 83.2


---

molecular target: Growth hormone secretagogue receptor type 1 (Homo sapiens); assay: Antagonist activity against ghrelin receptor (unknown origin) expressed in CHO cells assessed as inhibition of ghrelin-induced calcium response; type: functional, cell-based
Sequence (Q92847 whole entry): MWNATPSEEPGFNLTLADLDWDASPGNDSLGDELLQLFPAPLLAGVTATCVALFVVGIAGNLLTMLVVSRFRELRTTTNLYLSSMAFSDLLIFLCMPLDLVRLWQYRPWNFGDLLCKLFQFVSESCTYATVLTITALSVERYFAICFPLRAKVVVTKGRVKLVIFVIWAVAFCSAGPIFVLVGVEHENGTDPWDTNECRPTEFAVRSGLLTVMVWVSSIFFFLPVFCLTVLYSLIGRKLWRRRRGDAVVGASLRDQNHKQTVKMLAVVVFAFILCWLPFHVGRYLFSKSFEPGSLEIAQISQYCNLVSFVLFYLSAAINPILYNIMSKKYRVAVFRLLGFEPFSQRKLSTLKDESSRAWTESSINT
pIC50: −log10 of the molar value.
Endpoint Label: pIC50

[[record]]
molecule = "CC(=O)N1[C@@H]2CC[C@H]1C=C(c1cnc(NCc3ccc4c(c3)OCC4)c(C(=O)NC[C@H]3COc4ccccc4O3)c1)C2 (mixture of isomers)"
endpoint_label = "pIC50"
test_value = 7.51


---

assay: Toxicity against HEK293 cells assessed as cell viability at 2 uM by alamar blue staining method; format: cell-based; conditions: human, read-out: Activity
Consider the following molecules and their measured viability at 2 µM readings.
Endpoint Label: viability at 2 µM (%)

[[record]]
molecule = "CCCn1cc(-c2cnc(NCc3ccc4c(c3)OCO4)c(C(=O)NCC3COc4ccccc4O3)c2)cn1 (configuration not stated)"
endpoint_label = "viability at 2 µM"
test_value = 85

[[record]]
molecule = "CCCn1cc(-c2cnc(NCc3ccc4sccc4c3)c(C(=O)NCC3COc4ccccc4O3)c2)cn1 (racemic)"
endpoint_label = "viability at 2 µM"
test_value = 101

